Values were extracted from patent US6355799B1.

# Test system: barnyardgrass (Echinochloa crus-galli, ECHCG)
# experimental.details: Post-emerge test, greenhouse herbicide activity screening
# Format: in vivo
# reported.conditions: post-emerge, 63 g ai/ha, 14 days after application, rating scale 0-100
measurement.name: ECHCG phytotoxicity rating

> print(dat)
                                   molecule  reported.measurement
1  CCOC(=O)C(C)Oc1ccc(-n2c(=O)cc(C(F)(F)F)n(C)c2=O)c(NC(=O)c2ccc3ccccc3c2)c1 (centres unmarked) [2-146]                     0
2  Cn1c(C(F)(F)F)cc(=O)n(-c2ccccc2NC(=O)c2ccc3ccccc3c2)c1=O [2-142]                     0
3  CCCSCC(=O)Nc1c(OC)c(Cl)cc(F)c1-n1c(=O)cc(C(F)(F)F)n(C)c1=O [2-174]                     0
4  Cn1c(C(F)(F)F)cc(=O)n(-c2ccc(Cl)cc2NC(=O)c2ccc3ccccc3c2)c1=O [Compound 2-131]                    30

Turning now to a further molecule:
Ask: Please supply the value of reported ECHCG phytotoxicity rating for the item COc1c(Cl)cc(F)c(-n2c(=O)cc(C(F)(F)F)n(C)c2=O)c1NC(=O)COc1ccc(F)cc1 [2-133]
Result: 50

====

Recorded Pre-emerge Herbicidal Activity, phytotoxicity rating (0-100), AMBEL, one value per entry.
# Tested on: common ragweed (Ambrosia artemisizfolia L., AMBEL)
# experimental.details: Pre-emerge test, greenhouse herbicide activity screening
# Assay type: in vivo
# reported.conditions: 63 g ai/ha; rated 14 days after application; 0 = no damage, 100 = complete death
Give the figure only, with no unit attached.

Ask: Please supply the value of reported Pre-emerge Herbicidal Activity, phytotoxicity rating (0-100), AMBEL for the item COc1c(Cl)cc(F)c(-n2c(=O)cc(C(F)(F)F)n(C)c2=O)c1N(C(=O)c1ccc([N+](=O)[O-])cc1)C(=O)c1ccc([N+](=O)[O-])cc1 [2-69]
Result: 50

====

# Tested on: ivyleaf morningglory (Ipomoea hederacea, IPOHE)
# experimental.details: Pre-emerge test, greenhouse herbicide activity screening
# Type: in vivo
# reported.conditions: 63 g ai/ha; rated 14 days after application; 0 = no damage, 100 = complete death
Recorded Pre-emerge Herbicidal Activity, phytotoxicity rating (0-100), IPOHE, one value per entry.
Give the figure only, with no unit attached.

Below, each entry is followed by its recorded Pre-emerge Herbicidal Activity, phytotoxicity rating (0-100), IPOHE result.
> print(dat)
                            smiles.notation  reported.measurement
1  COc1c(Cl)cc(F)c(-n2c(=O)cc(C(F)(F)F)n(C)c2=O)c1NC(=O)c1ccccc1Cl                   100
2  COc1c(Cl)cc(F)c(-n2c(=O)cc(C(F)(F)F)n(C)c2=O)c1NC(=O)c1ccc(Cl)c(Cl)c1                    20
3  COc1c(Cl)cc(F)c(-n2c(=O)cc(C(F)(F)F)n(C)c2=O)c1NC(=O)c1ccc(F)cc1                    90
4  COc1c(Cl)cc(F)c(-n2c(=O)cc(C(F)(F)F)n(C)c2=O)c1N(C(=O)c1ccc(F)c(F)c1)C(=O)c1ccc(F)c(F)c1                     0
5  COc1c(Cl)cc(F)c(-n2c(=O)cc(C(F)(F)F)n(C)c2=O)c1NC(=O)c1ccc(-c2ccccc2)cc1                     0
6  CCOc1ccc(C(=O)Nc2c(OC)c(Cl)cc(F)c2-n2c(=O)cc(C(F)(F)F)n(C)c2=O)cc1                     0

Turning now to a further compound:
Ask: Please supply the value of reported Pre-emerge Herbicidal Activity, phytotoxicity rating (0-100), IPOHE for the item COc1c(Cl)cc(F)c(-n2c(=O)cc(C(F)(F)F)n(C)c2=O)c1NC(=O)c1ccc(Br)cc1
Result: 90

====

Recorded phytotoxicity rating AMARE, one value per entry.
# System: redroot pigweed (Amaranthus retroflexus, AMARE)
# experimental.details: Post-emerge test, greenhouse herbicide activity screening
# Assay type: in vivo
# reported.conditions: post-emerge, 63 g ai/ha, 14 days after application, rating scale 0-100
Give the figure only, with no unit attached.

Below, each entry is followed by its recorded phytotoxicity rating AMARE result.
> print(dat)
                                   compound  reported.measurement
1  COc1c(Cl)cc(F)c(-n2c(=O)cc(C(F)(F)F)n(C)c2=O)c1NC(=O)c1ccc(CCl)cc1 [2-36]                   100
2  COc1c(Cl)cc(F)c(-n2c(=O)cc(C(F)(F)F)n(C)c2=O)c1N(C(=O)c1ccc([N+](=O)[O-])cc1)C(=O)c1ccc([N+](=O)[O-])cc1 [2-69]                    40
3  COc1c(Cl)cc(F)c(-n2c(=O)cc(C(F)(F)F)n(C)c2=O)c1NC(=O)c1ccc(Br)cc1 [2-61]                   100

Ask: Please supply the value of reported phytotoxicity rating AMARE for the item COc1ccc(C(=O)Nc2c(OC)c(Cl)cc(F)c2-n2c(=O)cc(C(F)(F)F)n(C)c2=O)cc1 [2-63]
Result: 100

Ask: Please supply the value of reported phytotoxicity rating AMARE for the item Cc1c(Cl)cc(F)c(-n2c(=O)cc(C(F)(F)F)n(C)c2=O)c1NC(=O)C=Cc1ccccc1 [2-123]
Result: 100

Ask: Please supply the value of reported phytotoxicity rating AMARE for the item COc1c(Cl)cc(F)c(-n2c(=O)cc(C(F)(F)F)n(C)c2=O)c1NC(=O)c1cccnc1 [2-98]
Result: 75

Ask: Please supply the value of reported phytotoxicity rating AMARE for the item COc1c(Cl)cc(F)c(-n2c(=O)cc(C(F)(F)F)n(C)c2=O)c1N(C(=O)COc1ccccc1)C(=O)COc1ccccc1 [2-120]
Result: 90

====

Recorded Post-emerge Herbicidal Activity, phytotoxicity rating SETVI, one value per entry.
# Tested on: green foxtail (Setaria viridis, SETVI)
# experimental.details: Post-emerge test, greenhouse herbicide activity screening
# Type: in vivo
# reported.conditions: Rate 63 g ai/ha; rating scale 0-100 (0 no damage, 100 complete death); 14 days after application
Give the figure only, with no unit attached.

> print(dat)
                                   compound  reported.measurement
1  CCOC(=O)C(Cl)Cc1c(OC)c(Cl)cc(F)c1-n1c(=O)cc(C(F)(F)F)n(C)c1=O (single isomer, unassigned)                    60
2  CCCCOC(=O)C(Cl)Cc1c(OC)c(Cl)cc(F)c1-n1c(=O)cc(C(F)(F)F)n(C)c1=O (single isomer, unassigned)                    10
3  C#CCOC(=O)C(C)(Cl)Cc1c(OC)c(Cl)cc(F)c1-n1c(=O)cc(C(F)(F)F)n(C)c1=O (stereo not drawn)                   100
4  COc1c(Cl)cc(F)c(-n2c(=O)cc(C(F)(F)F)n(C)c2=O)c1CC(Cl)C(=O)OCC(F)(F)C(F)(F)C(F)(F)F (single isomer, unassigned)                    60
5  CCCCOC(=O)C(C)(Cl)Cc1c(OC)c(Cl)cc(F)c1-n1c(=O)cc(C(F)(F)F)n(C)c1=O (stereo not drawn)                    85
6  CCCCCCOC(=O)C(Cl)Cc1c(OC)c(Cl)cc(F)c1-n1c(=O)cc(C(F)(F)F)n(C)c1=O (single isomer, unassigned)                    30
7  CCOC(=O)C(Cl)(C#N)Cc1c(OC)c(Cl)cc(F)c1-n1c(=O)cc(C(F)(F)F)n(C)c1=O (stereo not drawn)                     0
8  CCCCCOC(=O)C(C)(Cl)Cc1c(OC)c(Cl)cc(F)c1-n1c(=O)cc(C(F)(F)F)n(C)c1=O (stereo not drawn)                    90

Turning now to a further compound:
Ask: Please supply the value of reported Post-emerge Herbicidal Activity, phytotoxicity rating SETVI for the item CCOC(=O)C(Cl)Cc1cc(Cl)cc(F)c1-n1nc(C)n(C(F)F)c1=O (stereo not drawn)
Result: 0

====

# Test system: upland rice (Oryza sp., var. Tebonnet, RICE)
# experimental.details: Pre-emerge test, crop safety
# Assay type: in vivo
# reported.conditions: 250 g ai/ha; pre-emerge; rated 14 days after application; 0 = no damage, 100 = complete death
Output Criterion met for records whose Pre-emerge crop damage RICE (phytotoxicity rating, scale 0-100) is lower than 90, Criterion not met for records at or above 90.

Worked set:
> print(dat)
                                   compound                            assayed.target     class.name
1  CCn1c(C(F)(F)F)cc(=O)n(-c2c(F)cc(Cl)c(OC)c2N)c1=O  upland rice (Oryza sp., var. Tebonnet, RICE)  Criterion met
2  C=CC(=O)N(C(=O)C=C)c1c(OC)c(Cl)cc(F)c1-n1c(=O)cc(C(F)(F)F)n(C)c1=O  upland rice (Oryza sp., var. Tebonnet, RICE)  Criterion met

Ask: is_below(Pre-emerge crop damage RICE (phytotoxicity rating, scale 0-100), 90) for CCOC(=O)C(C)Nc1c(OC)c(Cl)cc(F)c1-n1c(=O)cc(C(F)(F)F)n(C)c1=O (stereo not shown) ?
Result: Criterion met

Ask: is_below(Pre-emerge crop damage RICE (phytotoxicity rating, scale 0-100), 90) for COc1c(Cl)cc(F)c(-n2c(=O)cc(C(F)(F)F)n(C)c2=O)c1NC(=O)c1cccc(C)c1 ?
Result: Criterion not met

Ask: is_below(Pre-emerge crop damage RICE (phytotoxicity rating, scale 0-100), 90) for C=C(C)C(=O)N(C(=O)C(=C)C)c1c(OC)c(Cl)cc(F)c1-n1c(=O)cc(C(F)(F)F)n(C)c1=O ?
Result: Criterion met

Ask: is_below(Pre-emerge crop damage RICE (phytotoxicity rating, scale 0-100), 90) for C#CCOc1c(Cl)cc(F)c(-n2c(=O)cc(C(F)(F)F)n(C)c2=O)c1N ?
Result: Criterion not met

Ask: is_below(Pre-emerge crop damage RICE (phytotoxicity rating, scale 0-100), 90) for CCOc1c(Cl)cc(F)c(-n2c(=O)cc(C(F)(F)F)n(C)c2=O)c1N ?
Result: Criterion not met

Ask: is_below(Pre-emerge crop damage RICE (phytotoxicity rating, scale 0-100), 90) for COc1c(Cl)cc(F)c(-n2c(=O)cc(C(F)(F)F)n(C)c2=O)c1N=C(Cl)C(Cl)(Cl)Cl ?
Result: Criterion met

Ask: is_below(Pre-emerge crop damage RICE (phytotoxicity rating, scale 0-100), 90) for COc1c(Cl)cc(F)c(-n2c(=O)cc(C(F)(F)F)n(C)c2=O)c1NC(=O)c1ccc(C(C)(C)C)cc1 ?
Result: Criterion met

Ask: is_below(Pre-emerge crop damage RICE (phytotoxicity rating, scale 0-100), 90) for COc1c(Cl)cc(F)c(-n2c(=O)cc(C(F)(F)F)n(C)c2=O)c1N(C)C ?
Result: Criterion met

Ask: is_below(Pre-emerge crop damage RICE (phytotoxicity rating, scale 0-100), 90) for CCOC(=O)COc1c(Cl)cc(F)c(-n2c(=O)cc(C(F)(F)F)n(C)c2=O)c1N ?
Result: Criterion met

Ask: is_below(Pre-emerge crop damage RICE (phytotoxicity rating, scale 0-100), 90) for COc1c(Cl)cc(F)c(-n2c(=O)cc(C(F)(F)F)n(C)c2=O)c1NC(=O)c1ccc(C)cc1 ?
Result: Criterion not met

Ask: is_below(Pre-emerge crop damage RICE (phytotoxicity rating, scale 0-100), 90) for COc1c(Cl)cc(F)c(-n2c(=O)c(N)c(C(F)(F)F)n(C)c2=O)c1N ?
Result: Criterion met

Ask: is_below(Pre-emerge crop damage RICE (phytotoxicity rating, scale 0-100), 90) for CCCc1ccc(C(=O)N(C(=O)c2ccc(CCC)cc2)c2c(OC)c(Cl)cc(F)c2-n2c(=O)cc(C(F)(F)F)n(C)c2=O)cc1 ?
Result: Criterion met
